assayedSystem: GLP-1R (Homo sapiens)
Sequence (P43220 24-463): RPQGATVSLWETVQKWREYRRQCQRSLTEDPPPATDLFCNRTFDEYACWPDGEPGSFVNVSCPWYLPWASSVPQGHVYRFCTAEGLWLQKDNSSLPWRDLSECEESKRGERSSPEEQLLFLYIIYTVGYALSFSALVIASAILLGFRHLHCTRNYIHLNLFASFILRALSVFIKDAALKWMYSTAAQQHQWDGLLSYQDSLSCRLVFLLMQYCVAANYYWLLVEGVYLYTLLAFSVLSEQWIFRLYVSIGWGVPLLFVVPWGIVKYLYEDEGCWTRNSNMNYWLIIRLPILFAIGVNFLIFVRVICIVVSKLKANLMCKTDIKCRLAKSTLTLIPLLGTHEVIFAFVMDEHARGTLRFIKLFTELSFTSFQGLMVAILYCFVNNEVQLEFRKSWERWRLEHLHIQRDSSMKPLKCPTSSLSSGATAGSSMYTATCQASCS
methodDescription: GLP-1R activation: cAMP increase in CHO cells stably expressing GLP-1R
Format: cell-based
measurementParameters: cAMP increase, CHO cells stably expressing GLP-1R, 10 point dose response, 30 minutes incubation; read-out: EC50
measuredEndpoint: pEC50
Answers are plain numbers, as −log10 of the molar value.

Before answering, review these 5 worked examples.
molecule="N#Cc1cc(F)c(COc2ncc(F)c(-c3cc(F)c(Cc4nc5ccc(C(=O)O)cc5n4C[C@@H]4CCO4)cc3F)n2)cc1F [Example 878]" recordednumber=9.11
molecule="N#Cc1ccc(COc2cccc(-c3ccn(Cc4nc5ccc(C(=O)O)cc5n4CC4(n5ccnn5)CC4)c(=O)c3)n2)c(F)c1 [Example 421]" recordednumber=6.49
molecule="O=C(O)c1ccc2nc(Cc3cc(F)c(-c4cccc(OCc5ccc(C(F)(F)F)cc5F)n4)cc3F)n(C[C@@H]3CCO3)c2c1 [Example 665]" recordednumber=9.29
molecule="COc1cc(C#N)ccc1COc1cccc(-c2ccc(Cc3nc4ccc(C(=O)O)cc4n3CC3(CF)CC3)c(F)c2)n1 [Example 367]" recordednumber=9.07
molecule="COCCn1c(Cc2cc(F)c(-c3cccc(OCc4ccc(Cl)cn4)n3)cc2F)nc2ccc(C(=O)O)cc21 [Example 869]" recordednumber=8.20

I would be grateful if you could provide pEC50 for each of the following entries.
1. N#Cc1ccc(COc2nccc(-c3cc(F)c(Cc4nc5c(F)cc(C(=O)O)cc5n4C[C@@H]4CCO4)cc3F)n2)c(F)c1 [Example 420]
2. CO[C@@H](C)Cn1c(Cc2ccc(-c3cccc(OCc4ccc(C#N)cc4F)n3)cc2F)nc2ccc(C(=O)O)cc21 [Example 331]

10.30
7.91

====

methodDescription: Microsomal stability, human liver microsomes (predicted hepatic clearance)
measurementParameters: predicted from in vitro microsomal stability data
measuredEndpoint: Predicted Hepatic Clearance (Pred. Cl.) (mL/min/kg)
Numbers only, in mL/min/kg.

Before answering, review these 3 worked examples.
compound=N#CCC1(n2c(Cc3ccc(-c4cccc(OCc5ccc(C#N)cc5F)n4)cc3F)nc3ccc(C(=O)O)cc32)CC1 measuredendpoint="Predicted Hepatic Clearance (Pred. Cl.)" unitannotation=mL/min/kg recordednumber=3.83
compound="CN1C[C@@](C)(Cn2c(Cc3cc(F)c(-c4cccc(OCc5ccc(C#N)cc5F)n4)cc3F)nc3ccc(C(=O)O)cc32)C1=O (racemic)" measuredendpoint="Predicted Hepatic Clearance (Pred. Cl.)" unitannotation=mL/min/kg recordednumber=9.67
compound=N#Cc1ccc(COc2cccc(-c3ccc(Cc4nc5ccc(C(=O)O)cc5n4Cc4cn[nH]c4)c(F)c3)n2)c(F)c1 measuredendpoint="Predicted Hepatic Clearance (Pred. Cl.)" unitannotation=mL/min/kg recordednumber=12.7

I would be grateful if you could provide Predicted Hepatic Clearance (Pred. Cl.) for each of the following entries.
1. N#Cc1ccc(COc2nc(-c3ccc(Cc4nc5c(F)cc(C(=O)O)cc5n4C[C@@H]4CCO4)cc3)ccc2F)c(F)c1
2. COCCn1c(Cc2ccc(-c3cc(C)cc(OCc4ccc(C#N)cc4F)n3)cc2F)nc2ccc(C(=O)O)cc21
3. COCCn1c(Cc2ccc(-c3cccc(OCc4ccc(C#N)cc4F)n3)cc2OC)nc2ccc(C(=O)O)cc21
4. N#CCC1(Cn2c(Cc3cc(F)c(-c4cccc(OCc5ccc(Cl)cc5F)n4)cc3F)nc3ccc(C(=O)O)cc32)CC1

[2.83, 4.67, 5, 4.17]

I would be grateful if you could provide Predicted Hepatic Clearance (Pred. Cl.) for each of the following entries.
1. N#Cc1ccc(COc2nccc(-c3cc(F)c(Cc4nc5c(F)cc(C(=O)O)cc5n4Cc4ncco4)cc3F)n2)c(F)c1
2. CC(=O)N1CC[C@@H]1Cn1c(Cc2cc(F)c(-c3cccc(OCc4ccc(C#N)cc4F)n3)cc2F)nc2ccc(C(=O)O)cc21 (single isomer, unassigned) [Example 689]
3. N#Cc1ccc(COc2cccc(-c3cc(F)c(Cc4nc5cc(F)c(C(=O)O)cc5n4CC4(CF)CC4)cc3F)n2)c(F)c1
4. N#Cc1ccc(COc2cccc(-c3ccc(Cc4nc5ccc(C(=O)O)nc5n4CC4(CF)CC4)cc3F)n2)c(F)c1

[3.67, 5.17, 5, 7.17]
